System: NIH3T3
Test: Cytotoxicity against mouse NIH/3T3 cells
Assay type: cell-based
Conditions: mouse, nih3t3
quantity.measured: Activity

// worked examples, Activity included
molecule	Activity
CCCn1ncc(CN2CCCC(C(=O)c3cccc(OC(C)C)c3)C2)c1C (stereo not given)	Non-toxic
COc1ccc(CN2CCCC(C(=O)N3CCCC3)C2)c(OC)c1OC (stereo not given)	Non-toxic
CCn1ncc(CN2CCCC(C(=O)c3cccc(OC(C)C)c3)C2)c1C (stereo not given)	Non-toxic
CC(C)Oc1cccc(C(=O)C2CCCN(Cc3cnn(C(C)C)c3)C2)c1 (stereo not given)	Non-toxic

*Q* Provide only the value of recorded Activity for COc1ccc(CCN(C)C(=O)C2CCCN(Cc3ccc(OC)c(OC)c3)C2)cc1OC (stereo not given)
*A* Non-toxic
